# test-details: Plasma concentrations of flutamide active metabolite in rats after single oral doses of various esters (0-4 hours), gas-liquid chromatography
# Assay type: in vivo, male Sprague Dawley rats
# recorded-conditions: rat, single oral dose, 0-4 hours; normalized to a 5 mg/kg dose of flutamide active metabolite
test-readout: Area under the 0-4 hour plasma level curve of flutamide active metabolite (0-4 Hours) (ng·h/mL)

| molecule | endpoint-value |
| --- | --- |
| CNCC(=O)OC(C)(C)C(=O)Nc1ccc([N+](=O)[O-])c(C(F)(F)F)c1 [sar] | 3650 |
| CC(C)C(=O)Nc1ccc([N+](=O)[O-])c(C(F)(F)F)c1 [H (flutamide), reference compound] | 2400 |
| CN(CC(=O)OC(C)(C)C(=O)Nc1ccc([N+](=O)[O-])c(C(F)(F)F)c1)C(=O)CNC(=O)[C@@H](N)CCCCN [lys--gly--sar] | 3450 |
| C[C@H](N)C(=O)NCC(=O)N(C)CC(=O)OC(C)(C)C(=O)Nc1ccc([N+](=O)[O-])c(C(F)(F)F)c1 [ala--gly--sar] | 5020 |
| CC(C)(OC(=O)[C@@H]1CCCN1C(=O)CNC(=O)[C@@H](N)CCCCN)C(=O)Nc1ccc([N+](=O)[O-])c(C(F)(F)F)c1.Cl.Cl [lys--gly--pro] | 6400 |

The reported measurements were obtained from patent US4921941A.
